Numbers sourced from patent US9737504B2.

Parameter melting point: see the listing below.

Field: example entries. Status: answers known.
| molecule | melting point |
| --- | --- |
| Cc1c(Cl)c(O)c(/C=C/CCCCCCOC(=O)C(C)C)c(O)c1C=O | 73 °C |
| COC(=O)c1ccc(O)c(C/C=C(\C)CCC=C(C)C)c1O | 62 °C |
| Cc1c(Cl)c(O)c(CCCCCCCCO)c(O)c1C=O | 129 to 130 °C |

Ask: GET /values?readout=melting point&item= Cc1c(Cl)c(O)c(CCCCCCCC(=O)O)c(O)c1C=O
Reply: 149 to 150 °C

Ask: Look at this molecule and give its reported melting point. Cc1c(Cl)c(O)c(CCCCCCC(C)C)c(O)c1C=O
Reply: 93 to 94 °C

Ask: Param item = Cc1c(Cl)c(O)c(CCCCCCCCCCCC(=O)O)c(O)c1C=O ; retrieve measured melting point.
Reply: 130 to 131 °C

Ask: Returns the measured melting point for the input molecule. Input: Cc1c(Cl)c(O)c(/C=C/CCCCCCOC(=O)C(C)(C)C)c(O)c1C=O
Reply: 57 to 58 °C

Ask: Fill blank: measured melting point of the molecule CC(C)=CCC/C(C)=C/Cc1c(O)c(Cl)cc(C=O)c1O is ____.
Reply: 94 to 95 °C

Ask: melting point for COC(=O)CCCCCCCCCc1c(O)c(Cl)c(C)c(C=O)c1O ?
Reply: 87 to 88 °C

Ask: Looking for the measured melting point of Cc1c(Cl)c(O)c(/C=C/CCCCCCCOC(=O)C(C)(C)C)c(O)c1C=O , can you help?
Reply: 69 to 70 °C

Ask: Please give the measured melting point for this molecule: Cc1c(Cl)c(O)c(CCCCCCCC2CC(=O)C(C)(C)O2)c(O)c1C=O (stereo not shown)
Reply: 70 to 71 °C

Ask: Fill blank: measured melting point of the molecule Cc1c(Cl)c(O)c(CCCCCCCCCCCC(=O)OC(C)C)c(O)c1C=O is ____.
Reply: 82 to 83 °C

Ask: Param item = CCC(=O)OCCCCCCCCc1c(O)c(Cl)c(C)c(C=O)c1O ; retrieve measured melting point.
Reply: 63 to 64 °C
